system: NLRP3; assay: IL-1β secretion assay in PMA-differentiated, LPS/nigericin-stimulated THP-1 cells (384-well, ELISA read-out); assay type: cell-based, human; settings: Homo sapiens, THP-1, Table 4; IL-1β secretion, LPS/nigericin-stimulated THP-1 cells; read-out: IC50
Property Label: pIC50
The meaning of pIC50 here: minus log10 of the concentration in molar units.

Qu. Give the reported pIC50 for "O=C(CN1CC2(CC2)c2cc(Br)ccc2C1=O)Nc1cccc2nccn12" (system: NLRP3).
Ans. 5.38

Qu. Give the reported pIC50 for "CC1(C)CN=C(NC(=O)CN2CC3(CC3)c3cc(Br)ccc3C2=O)O1" (system: NLRP3).
Ans. 5.27

Qu. Give the reported pIC50 for "O=C(CN1CC2(COC2)c2cc(Br)ccc2C1=O)Nc1ncccn1" (system: NLRP3).
Ans. 5.35

Qu. Give the reported pIC50 for "O=C(CN1CC2(CC2)c2cc(Br)ccc2C1=O)Nc1nc2cnccn2n1" (system: NLRP3).
Ans. 6.69

Qu. Give the reported pIC50 for "CCc1cnc(NC(=O)CN2CC3(CC3)c3cc(Br)ccc3C2=O)nc1" (system: NLRP3).
Ans. 6.19

* * *

pIC50 values, listed per item
system: NLRP3; test: IL-1β secretion assay in PMA-differentiated, LPS/nigericin-stimulated THP-1 cells (384-well, ELISA read-out); assay type: cell-based, human; details: Homo sapiens, THP-1, Table 4; IL-1β secretion, LPS/nigericin-stimulated THP-1 cells; read-out: IC50
The meaning of pIC50 here: minus log10 of the concentration in molar units.

Example entries begin here.
O=C(CN1CC2(CC2)c2cc(Br)ccc2C1=O)Nc1nc2c(Cl)cccn2n1 = 5.78
O=C(CN1CC2(CC2)c2cc(Br)ccc2C1=O)NCc1ncco1 = 4.52
O=C(CN1CC2(CC2)c2cc(Br)ccc2C1=O)Nc1ccc2nncn2c1 = 5.75
O=C(CN1C[C@@]2(C[C@@H]2F)c2cc(Br)cc(F)c2C1=O)Nc1ncc(F)cn1 (mixture of isomers) = 6.78

# ---- query compound ----
Qu. Form field: reported pIC50 of O=C(CN1CC2(CC2)c2cc(Br)ccc2C1=O)Nc1ncc(C2CCOC2)cn1 (centres unmarked)
Ans. 6.28

* * *

test system: NLRP3; assay: IL-1β secretion assay in PMA-differentiated, LPS/nigericin-stimulated THP-1 cells (384-well, ELISA read-out); assay type: cell-based, human; conditions: Homo sapiens, THP-1, Table 4; IL-1β secretion, LPS/nigericin-stimulated THP-1 cells; read-out: IC50
pIC50: −log10 of the molar value.
Would you please tag the item condition met when its pIC50 is 6 or above, and condition not met when it is below?

Use these answered entries as a reference point.
O=C(CN1CC2(CC2)c2cc(Br)ccc2C1=O)Nc1nc2ccc(Cl)cn2n1 [Example 264] = condition met
CC1(O)CCN(C(=O)CN2CC3(CC3)c3cc(Br)ccc3C2=O)C1 (stereo not drawn) [Example 68] = condition not met
O=C(CN1CC2(CC2)c2cc(Br)ccc2C1=O)Nc1ncn(CC(F)(F)F)n1 [Example 425] = condition not met
O=C(CN1CC2(CC2)c2cc(Br)ccc2C1=O)NC1CC(c2ccccc2)C1 (stereo not drawn) [Example 427] = condition not met

Qu. Hello, I need to know if O=C(CN1CC2(CC2)c2cc(Br)ccc2C1=O)Nc1ccc2cn[nH]c2c1 [Example 43] has measured pIC50 not below 6. Thanks!
Ans. condition met

Qu. Hello, I need to know if O=C(CN1CC2(CC2)c2cc(OCF)ccc2C1=O)Nc1ncccn1 [Example 82] has measured pIC50 not below 6. Thanks!
Ans. condition not met

Qu. Hello, I need to know if O=C(CN1CC2(CC2)c2cc(Br)ccc2C1=O)NC1(CO)CC1 [Example 160] has measured pIC50 not below 6. Thanks!
Ans. condition not met

* * *

System: NLRP3
Experiment: IL-1β secretion assay in PMA-differentiated, LPS/nigericin-stimulated THP-1 cells (384-well, ELISA read-out)
Assay type: cell-based, human
Details: Homo sapiens, THP-1, Table 4; IL-1β secretion, LPS/nigericin-stimulated THP-1 cells; read-out: IC50
Method: Compounds as provided herein were tested in the following assay. Cell culture medium employed contained RPMI 1640 medium (89%), FBS (10%), Pen/Strep (1%), and 2-mercaptoethanol (0.05 mM). Freezing medium was made up of 90% FBS and 10% DMSO. […] All media was carefully aspirated from each culture flask. […] These supernatant aliquots were analyzed using an IL-Iβ detection kit as described below. If needed, the test samples could be snap frozen and stored at −80° C. until analyzed. […]
Property Label: pIC50
The meaning of pIC50 here: minus log10 of the concentration in molar units.

Example entries begin here.
O=C(CN1CC2(CC2)c2cc(Cl)ccc2C1=O)Nc1ncc(F)cn1 = 6.43
N#Cc1cnc(NC(=O)CN2CC3(CC3)c3cc(C(F)(F)F)ccc3C2=O)c(F)c1 = 6.00

# ---- query molecule ----
Qu. Form field: reported pIC50 of "O=C(CN1CC2(CC2)c2cc(Br)ccc2C1=O)NCCC(F)(F)F"
Ans. 5.03

* * *

test system: NLRP3; test: IL-1β secretion assay in PMA-differentiated, LPS/nigericin-stimulated THP-1 cells (384-well, ELISA read-out); type: cell-based, human; conditions: Table 4; IL-1β secretion, LPS/nigericin-stimulated THP-1 cells; read-out: IC50
IC50 values, listed per item
Your answer is read as nM, so omit the unit and give the number.

Example entries begin here.
O=C(CN1C[C@@]2(C[C@@H]2F)c2cc(C(F)(F)F)ccc2C1=O)Nc1ncc(Cl)cn1 (single isomer, unassigned) [Example 238] = 414
O=C(CN1CC2(CC2)c2cc([C@@]3(F)C[C@@H]3F)ccc2C1=O)Nc1ncc(F)cn1 (single isomer, unassigned) = 454
C[C@@H]1[C@H](F)[C@]12CN(CC(=O)Nc1ncc(F)cn1)C(=O)c1ccc(Br)cc12 (single isomer, unassigned) [Example 278] = 1790
CC1(O)CC(NC(=O)CN2CC3(CC3(F)F)c3c(ccc(Br)c3F)C2=O)C1 (single isomer, unassigned) [Example 326] = 13
N#Cc1cnc(NC(=O)CN2CC3(CC3(F)F)c3c(ccc(Br)c3F)C2=O)nc1 (single isomer, unassigned) [Example 320] = 14
COC1(C)CC(NC(=O)CN2CC3(CC3)c3cc(Br)ccc3C2=O)C1 (stereo not shown) [Example 341] = 2410
N#Cc1cnc(NC(=O)CN2C[C@@]3(C[C@@H]3F)c3cc(C(F)(F)F)ccc3C2=O)nc1 (single isomer, unassigned) [Example 237] = 61
O=C(CN1C[C@@]2(C[C@@H]2F)c2cc(C(F)(F)F)ccc2C1=O)Nc1ncc(C(F)(F)F)cn1 (single isomer, unassigned) [Example 243] = 95

Qu. Form field: reported IC50 of Cc1cnc(NC(=O)CN2C[C@@]3(C[C@@H]3F)c3cc(C(F)(F)F)ccc3C2=O)nc1 (single isomer, unassigned) [Example 245]
Ans. 938

Qu. Form field: reported IC50 of O=C(CN1CC2(CC2(F)F)c2c(ccc(Br)c2F)C1=O)Nc1ncc(Cl)cn1 (single isomer, unassigned) [Example 317]
Ans. 8510

Qu. Form field: reported IC50 of N#Cc1cnc(NC(=O)CN2CC3(CC3(F)F)c3c(ccc(Br)c3F)C2=O)nc1 (single isomer, unassigned) [Example 319]
Ans. 3050

Qu. Form field: reported IC50 of COC1(C)CC(NC(=O)CN2CC3(CC3)c3cc(Br)ccc3C2=O)C1 (stereo not shown) [Example 340]
Ans. 7870

* * *

tested on: NLRP3; assay: IL-1β secretion assay in PMA-differentiated, LPS/nigericin-stimulated THP-1 cells (384-well, ELISA read-out); format: cell-based, human; conditions: Homo sapiens, THP-1, Table 4; IL-1β secretion, LPS/nigericin-stimulated THP-1 cells; read-out: IC50
Lab note: cut-off is 2000 nM. Strictly less in IC50 is True. Exactly 2000 nM or more is False.

Use these answered entries as a reference point.
COCCN1CCCC(NC(=O)CN2CC3(CC3)c3cc(Br)ccc3C2=O)C1 (centres unmarked) = False
CN1CC(NC(=O)CN2CC3(CC3)c3cc(Br)ccc3C2=O)CCC1=O (centres unmarked) = False
Cc1nc(NC(=O)CN2CC3(CC3)c3cc(Br)ccc3C2=O)ncc1C#N = True

Now turn to the next molecule.
Qu. Please let me know if "O=C(CN1CC2(CC2)c2c(ccc(OC(F)F)c2F)C1=O)Nc1ncc(F)cn1" shows IC50 below 2000 nM.
Ans. True

* * *

pIC50 values, listed per item
system: NLRP3; assay: IL-1β secretion assay in PMA-differentiated, LPS/nigericin-stimulated THP-1 cells (384-well, ELISA read-out); assay type: cell-based, human; conditions: Homo sapiens, THP-1, Table 4; IL-1β secretion, LPS/nigericin-stimulated THP-1 cells; read-out: IC50
The meaning of pIC50 here: minus log10 of the concentration in molar units.

Qu. Form field: reported pIC50 of "O=C(CN1CC2(CC2)c2cc(Br)ccc2C1=O)N[C@@H]1CCN(Cc2ccccc2)C1"
Ans. 5.30

Qu. Form field: reported pIC50 of "CN(Cc1cnn(C)c1)C(=O)CN1CC2(CC2)c2cc(Br)ccc2C1=O"
Ans. 4.46

Qu. Form field: reported pIC50 of O=C(CN1CC2(CC2)c2cc(Br)ccc2C1=O)NC1CCn2nccc2C1 (centres unmarked)
Ans. 5.50

Qu. Form field: reported pIC50 of CN(C(=O)CN1CC2(CC2)c2cc(Br)ccc2C1=O)C1CC(C)(O)C1 (centres unmarked)
Ans. 4.77

Qu. Form field: reported pIC50 of "CC(C)(O)CCNC(=O)CN1CC2(CC2)c2cc(Br)ccc2C1=O"
Ans. 5.33
